- TARGET_OF_ASSAY: T1, PCSK9 protein inserted with biotin receiving peptide BP15 and His-tag: PCSK9-BP15-His6 (human, UniProt Q8NBP7 153-692; A8T644 31-152, biotin on the BP15 biotin receiving peptide (labeled during the expression))
- T1 construct: also called WT PCSK9; PCSK9 WT
- METHOD_NOTES: competition ELISA, LDLR-FC coated, biotin PCSK9 + antibody
I'd be grateful if you could share measured IC50 for these entries.
One number for each entry, in µg/mL.

{"columns": ["BINDER", "RESULT_UNIT", "IC50"],
 "data": [
  ["h011-3192 (antibody, V domains shown) VH: QVQLVQSGAEVKKPGASVKVSCKASGYTFTGYTIHWVRQAPGQGLEWMGYINPSSTYTKFNQKFKDRVTMTRDTSISTAYMELSRLRSDDTAVYYCARERIYSNYWFFDVWGQGTTVTVSS VL: DIVMTQSPSSLSASVGDRVTITCKASQNVYTEVAWYQQKPGKSPKLLIYSASNRYTGVPSRFSGSGSGTDFTLTISSLQPEDFATYFCQQYSSYPYTFGGGTKVEIK", "µg/mL", 0.698]
]}

Switching to the query record.
Please fill in: IC50 reported for h011-3194 (antibody, V domains shown) VH: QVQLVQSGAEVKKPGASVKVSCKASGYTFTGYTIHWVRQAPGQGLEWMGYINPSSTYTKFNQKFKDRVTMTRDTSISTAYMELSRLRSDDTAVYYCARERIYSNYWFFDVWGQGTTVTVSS VL: DIVMTQSPSSLSASVGDRVTITCKASQNVYTAVAWYQQKPGKSPKLLIYSASNRYTGVPSRFSGSGSGTDFTLTISSLQPEDFATYFCQQLSSYPYTFGGGTKVEIK = 0.628
